target: human serum albumin (human) (UniProt P02768); experiment: primary solution ELISA screen
Sequence (P02768 25-609 limits assumed): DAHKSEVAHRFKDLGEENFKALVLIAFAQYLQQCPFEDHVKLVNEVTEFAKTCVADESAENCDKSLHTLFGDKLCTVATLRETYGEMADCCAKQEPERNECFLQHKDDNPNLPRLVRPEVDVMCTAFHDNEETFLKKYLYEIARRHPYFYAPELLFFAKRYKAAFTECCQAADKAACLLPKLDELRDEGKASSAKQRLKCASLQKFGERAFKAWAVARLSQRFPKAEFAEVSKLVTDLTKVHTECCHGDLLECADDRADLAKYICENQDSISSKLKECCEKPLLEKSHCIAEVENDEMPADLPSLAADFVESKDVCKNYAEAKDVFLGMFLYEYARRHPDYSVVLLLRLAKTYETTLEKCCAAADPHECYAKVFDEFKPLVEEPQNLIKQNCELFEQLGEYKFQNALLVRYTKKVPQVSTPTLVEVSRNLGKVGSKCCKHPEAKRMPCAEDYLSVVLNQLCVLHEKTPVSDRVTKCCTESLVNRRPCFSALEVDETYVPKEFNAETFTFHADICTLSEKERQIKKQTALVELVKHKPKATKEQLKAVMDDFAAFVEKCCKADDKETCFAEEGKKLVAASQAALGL
MEASURED_METRIC: RLU (RLU)
Record the value in RLU, omitting the unit from your answer.

BINDER: SEQ ID NO 72 (designed binder, not shown: small tags and cut ends) MLPAPKNLVVSRVTEDSARLSWTAPDAAFDSFTIGYREWYWYGEAIVLTVPGSERSYDLTGLKPGTEYNVPISGVKGGLDSFPLSAIFTT
MEASURED_METRIC: RLU
TEST_RESULT: 8950
//
BINDER: SEQ ID NO 41 (designed binder, not shown: small tags and cut ends) MLPAPKNLVVSRVTEDSARLSWQGVARAFDSFLITYREQIFAGEVIVLTVPGSERSYDLTGLKPGTEYPVWIQGVKGGHLSDPLSAIVTT
MEASURED_METRIC: RLU
TEST_RESULT: 115000
//
BINDER: SEQ ID NO 80 (designed binder, not shown: small tags and cut ends) MLPAPKNLVVSRVTEDSARLSWTAPDAAFDSFWIDYEEEGVIGEAIYLHVPGSERSYDLTGLKPGTEYVVKIHGVKGGHPSHPLVAVFTT
MEASURED_METRIC: RLU
TEST_RESULT: 33600

Look at this binder and give its reported RLU. SEQ ID NO 53 (designed binder, not shown: small tags and cut ends) MLPAPENLVVSEVTEDSARLSWQGVARAFDSFLITYREQIFAGEVIVLTVPGSERSYDLTGLKPGTEYPVWIQGVKGGSPSAPLSAESTT
32000
